System: HLA-A*01
protocol notes: MHC binding assay (UV-ligand exchange, β2m ELISA)
Parameters: species or system human
readout type: Peptide exchange (peptide exchange yield, MHC class I binding score)

Sample records with Peptide exchange (peptide exchange yield, MHC class I binding score):
substance	observed measurement
188 (VSDAKLDKY; listed as Homo sapiens) [compound 188]	“+++” (>50 = +++)
183 (TLEDIATSHLY; listed as Homo sapiens) [compound 183]	“++++” (>75% = ++++)
160 (LTEAVLNRY; listed as Homo sapiens) [compound 160]	“+++” (>50 = +++)
418 (LSDPSGPKSY; listed as Homo sapiens) [compound 418]	“+++” (>50 = +++)

Measured Peptide exchange (peptide exchange yield, MHC class I binding score), 412 (ILDEVIMGY; listed as Homo sapiens) [compound 412] : “++++” (>75% = ++++)
